# pIC50 per entry
- Assayed Target: IGFR-1 (Homo sapiens)
- Construct: Kinases are expressed as either kinase domains or full length constructs; made in house
- Sequence (P08069 31-1367): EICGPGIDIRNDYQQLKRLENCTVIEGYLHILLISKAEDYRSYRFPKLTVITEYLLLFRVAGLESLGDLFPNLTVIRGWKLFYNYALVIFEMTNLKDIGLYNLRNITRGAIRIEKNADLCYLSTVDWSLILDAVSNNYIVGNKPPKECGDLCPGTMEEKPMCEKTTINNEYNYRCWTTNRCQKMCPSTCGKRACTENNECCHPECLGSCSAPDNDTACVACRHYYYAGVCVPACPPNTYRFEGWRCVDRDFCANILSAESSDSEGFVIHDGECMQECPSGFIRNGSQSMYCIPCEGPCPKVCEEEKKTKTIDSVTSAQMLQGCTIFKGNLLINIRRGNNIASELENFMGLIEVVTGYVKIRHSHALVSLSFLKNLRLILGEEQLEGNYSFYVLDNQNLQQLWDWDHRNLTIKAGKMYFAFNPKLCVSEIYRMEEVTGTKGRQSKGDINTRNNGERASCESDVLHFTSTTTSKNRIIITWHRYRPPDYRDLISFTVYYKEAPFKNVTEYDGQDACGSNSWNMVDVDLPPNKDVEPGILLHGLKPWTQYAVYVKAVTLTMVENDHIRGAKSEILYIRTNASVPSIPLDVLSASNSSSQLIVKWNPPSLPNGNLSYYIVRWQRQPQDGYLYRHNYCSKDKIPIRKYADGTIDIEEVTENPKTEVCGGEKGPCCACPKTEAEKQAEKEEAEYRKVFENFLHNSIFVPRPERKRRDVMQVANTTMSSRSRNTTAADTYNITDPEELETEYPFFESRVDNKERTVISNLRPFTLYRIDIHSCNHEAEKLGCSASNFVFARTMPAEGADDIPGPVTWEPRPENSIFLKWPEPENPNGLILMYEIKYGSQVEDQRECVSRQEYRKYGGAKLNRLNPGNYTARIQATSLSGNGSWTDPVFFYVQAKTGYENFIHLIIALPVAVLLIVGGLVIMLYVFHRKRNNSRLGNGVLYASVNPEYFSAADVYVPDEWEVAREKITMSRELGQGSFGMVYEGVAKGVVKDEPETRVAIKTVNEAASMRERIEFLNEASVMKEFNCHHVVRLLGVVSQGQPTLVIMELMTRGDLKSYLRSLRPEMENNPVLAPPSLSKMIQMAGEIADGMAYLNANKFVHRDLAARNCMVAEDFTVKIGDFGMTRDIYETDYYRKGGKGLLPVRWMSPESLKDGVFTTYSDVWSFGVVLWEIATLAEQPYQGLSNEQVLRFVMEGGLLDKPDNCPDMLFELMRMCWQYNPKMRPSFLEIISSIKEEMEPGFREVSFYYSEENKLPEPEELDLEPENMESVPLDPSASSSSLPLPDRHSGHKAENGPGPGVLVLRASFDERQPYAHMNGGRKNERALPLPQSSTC
- Measurement Notes: Kinase inhibition assay, IGFR-1 (Table 2)
- Assay type: biochemical
- Cond: Table 2, kinase inhibition class
pIC50: −log10 of the molar value.

                                   molecule  result
0  COc1cc(Nc2ncnc(-n3c(NCc4ccc(C(F)(F)F)cc4)nc4ccccc43)n2)cc(OC)c1OC [Compound 598]  < 5.09

So what does the record say about pIC50 for COc1ccc(-c2cc(Nc3ncnc(Nc4ccc(CC(N)=O)cc4)n3)[nH]n2)cc1 [Compound 576] ?
> 6.02

Try this molecule too: COc1ccc(Nc2ncnc(NCCCOC(C)C)n2)cc1OC [Compound 785]
< 4.89

Follow-up item: COc1cc(Nc2ncnc(-n3c(NCc4cccc(C)c4)nc4ccccc43)n2)cc(OC)c1OC [Compound 515]
< 5.04

Query COC(=O)c1ccc(-c2cc(Nc3ncnc(Nc4cccc(C(N)=O)c4)n3)[nH]n2)cc1 [Compound 990] next
5.25 to 6.03

Do the same for COc1cc(Nc2ncnc(Nc3cc(Cl)ccc3C)n2)cc(OC)c1OC [Compound 625] please
5.22 to 6.00

How about this molecule: COC(=O)Cc1cccc(Nc2ncnc(Nc3cccc(Br)c3)n2)c1 [Compound 540]
> 6.02

Input COc1cc(Nc2ncnc(N(C)c3ccc4c(cnn4Cc4ccccc4)c3)n2)cc(OC)c1OC [Compound 566]
5.04 to 5.15
